Form field: melting point (one value per entry).

Here is how some compounds turned out for melting point.
> print(dat)
                                   compound   quantityname         result
1  CSc1ccc(C2=NC[C@@H](OC(=O)Nc3ccccc3)[C@H](c3ccccc3)O2)cc1 (racemic)  melting point         170 °C
2  Cc1c(NC(=O)c2ccc(OCC3CC3)cc2)ccc2cc(CN3CCCC3)cnc12  melting point         168 °C
3  CC1(C)OC(=O)Nc2ccc(-c3cccc(C(=O)c4ccccc4)c3)cc21  melting point  156 to 157 °C
4  Nc1ccc(F)cc1CS(=O)c1nc2ccccc2[nH]1 (stereo not given)  melting point  184 to 185 °C
5       CCC1(CC)C(=O)c2cc(OC)c(C)c(C)c2C1=O  melting point    80 to 81 °C

Respond only with melting point recorded for COc1ccc(-c2cc(CO)c(=O)n(Cc3ccc(F)c(F)c3)n2)cc1F 154 to 156 °C

Respond only with melting point recorded for COC(=O)CCCc1cc2cc(Cl)ccc2n1S(=O)(=O)c1ccc2c(c1)CCC(C)(C)O2 126 to 129 °C

Respond only with melting point recorded for CCCc1c(S(=O)CCCOc2ccc(C(C)=O)c(OCCCC(=O)OCC)c2CCC)ccc(C(C)=O)c1O (stereo not given) 74 to 76 °C

Respond only with melting point recorded for Cc1cnc2oc(-c3ccccc3)nc2c1 71 to 73 °C

Respond only with melting point recorded for CCOc1cc(Cc2cnc(N)nc2N)cc2c1OC(C)(C)C=C2C(C)(C)O 209 to 210 °C

Respond only with melting point recorded for CCCCCOC(=O)c1cc(O)nn1-c1ncccc1Cl 172 to 173 °C

Respond only with melting point recorded for CCCCOc1cc(Oc2ccc(C(F)(F)F)cn2)ccc1CCCOc1c(CC(=O)O)cccc1OC 64 to 65 °C

Respond only with melting point recorded for CCC1Cn2c(ncc(-c3nnn[nH]3)c2=O)-c2ccccc21 (stereo not given) 254 to 258 °C

Respond only with melting point recorded for Cc1ccccc1OCC(O)CN1CCC(N2CCCNC2=O)CC1 (stereo not given) 145 to 147 °C

Respond only with melting point recorded for COC(=O)c1ccc(Oc2ccc(N)cc2C(=O)OC)cc1 144 to 146 °C

====

quantityName: melting point (°C)

> print(dat)
           smilesrepresentation  measurednumber
1     CC(C)[C@@H](C(N)=O)C(=O)O             174
2  CC1(C)CS(=O)(=O)CC(C)(C)N1Br             150

====

Form field: melting point (one value per entry).

Here is how some compounds turned out for melting point.
> print(dat)
                                   compound         result
1  Cc1c(C)c2c(c(C)c1Br)OCC2c1ccc(C(C)C)cc1 (stereo not given)    56 to 57 °C
2  O=C(O)COc1cc(F)ccc1C(=S)NCc1nc2c(F)c(F)cc(F)c2s1         150 °C
3  COc1cc2c3c(n(C)c(=O)c2cc1OC)-c1cc2c(cc1C3=CCCCCl)OCO2  196 to 201 °C
4                   Cc1nc(-c2cc(N)ccc2F)cs1    73 to 75 °C
5  CCOC(=O)c1c(=O)c2cc(F)c(N3CCN(C)CC3)cc2n2ccccc12  167 to 170 °C

Respond only with melting point recorded for O=c1cc(N2CCOCC2)oc2cc(OS(=O)(=O)C(F)(F)F)ccc12 143 to 145 °C

Respond only with melting point recorded for Nc1ncccc1OCc1ccc(Cl)cc1 121 to 123 °C

Respond only with melting point recorded for CCC(O)(CC(N)=O)c1ccc(Cl)c(Cl)c1 (stereo not given) 99 to 100 °C

Respond only with melting point recorded for CCN(Cc1cccc(-c2ccc(CC3SC(=O)NC3=O)cc2)c1)C(=O)OC(C)(C)C (stereo not given) 103 °C

Respond only with melting point recorded for O=C1C(=O)c2ccccc2C2=C1SCC1(CCN(C3CCCC3O)CC1)O2 (stereo not given) 110 to 113 °C

====

Form field: melting point (one value per entry).

Here is how some compounds turned out for melting point.
> print(dat)
                                   compound         result
1                 CC1(C)OC(=O)c2ccc(CO)cc21    59 to 63 °C
2           CC(=O)CCn1[nH]c(=O)c2ccccc2c1=O  152 to 153 °C
3  COc1cc(CC(C)NC(=O)c2ccccc2)cc2c1OC(C)(C)C2 (stereo not given)  141 to 142 °C
4  CCCCCCCCCCCCCCCCNc1ccc(C(=O)NS(=O)(=O)c2ccc(N)cc2)cc1  193 to 196 °C
5  CN(C)c1ccc2nc(-c3csc4ccccc34)[nH]c(=O)c2c1       > 300 °C
6  CS(=O)(=O)N1CCC(COCc2cc(C(F)(F)F)cc(C(F)(F)F)c2)(c2ccccc2)CC1  102 to 104 °C

Respond only with melting point recorded for COc1cc(Nc2ccnc(Nc3cc(OC)c(OC)c(OC)c3)n2)cc(OC)c1OC 180 °C

Respond only with melting point recorded for Cc1ccc(NC(=S)Nc2cccc3c2C2CCCCN2C3=O)nc1 (stereo not given) 232 °C

====

Form field: melting point (one value per entry).

Here is how some compounds turned out for melting point.
> print(dat)
                                   compound   quantityname         result
1              CC(=O)c1c[nH]c(-c2ccncc2)c1C  melting point  210 to 211 °C
2  CN1c2ccccc2N(Cc2ccccc2)C(=O)[C@H]2CCC[C@H]21 (relative stereo)  melting point  123 to 125 °C
3                 Cn1nc(-c2ccccc2)c(N=O)c1N  melting point  230 to 231 °C
4   O=C(O)CNC1=Nc2ccc(Cl)cc2C(c2ccccc2)=NC1  melting point  215 to 220 °C
5  CNc1c([N+](=O)[O-])ccc2c1OC(COS(=O)(=O)c1ccc(C)cc1)CO2 (stereo unspecified)  melting point  149 to 151 °C
6  O=C(CCl)Nc1cc(Br)cc([N+](=O)[O-])c1NC(=O)CCl  melting point  172 to 173 °C

Then there is this compound:
Respond only with melting point recorded for Cc1cc(NCCO)c2[nH]nc(C)c2n1 225 to 230 °C

====

Form field: melting point (one value per entry).

Here is how some molecules turned out for melting point.
> print(dat)
                                   molecule         result
1      CN1CCC(=C2c3ccccc3OCc3cc(Br)sc32)CC1  101 to 103 °C
2  O=C(O)c1cccc(NC(=O)C(CSC(=O)c2ccccc2)Cc2ccccc2)c1 (stereo not given)  182 to 184 °C
3  Cn1nc(N)c2c(c1=O)OCCNC2Cc1ccccc1 (stereo not given)  195 to 196 °C
4  O=C(C=Cc1ccc(CN(CCO)C2CCCCC2)cc1)Nc1ccc(-c2ccc(Cl)cc2)cc1  178 to 179 °C

Respond only with melting point recorded for COc1nccc(N[C@H]2CC[C@H](c3ccccc3)CC2)c1Br 105 °C

Respond only with melting point recorded for CCOC(=O)COc1ccc(N)cc1 157 to 158 °C

Respond only with melting point recorded for Cc1cc(O)c(SCc2ccc(Cl)cc2)c(=O)o1 139 to 141 °C

Respond only with melting point recorded for Cc1ccc(S(=O)(=O)N2[C@H](CCCC(=O)O)CC[C@@H]2c2ccc(F)cc2)cc1 (racemic) 87 °C

Respond only with melting point recorded for O=C(NC(c1ccccc1)(c1ccccc1)c1ccccc1)c1ccccc1 200 to 202 °C

====

Form field: melting point (one value per entry).

Here is how some compounds turned out for melting point.
> print(dat)
                                   compound         result
1           S=C1Nc2cc(Br)ccc2N2CCc3cccc1c32  196 to 197 °C
2             O=C(O)/C=C1\CCc2c(F)cc(F)cc21  238 to 239 °C
3  O=[N+]([O-])c1nccn1CC(O)CN1C2CCCCCCC21 (stereo unspecified)  120 to 122 °C
4  COC(=O)c1ccc(Cn2c3c(c4cc(F)cc(F)c42)CCCC3CC(=O)O)cc1 (stereo unspecified)  169 to 170 °C

Respond only with melting point recorded for O=c1[nH]c(Nc2ccccc2)nc2c1ncn2CCCCO > 350 °C

Respond only with melting point recorded for CC(=O)NCC1CN=C(c2ccccc2F)c2cc(Cl)ccc2N1C(C)=O (stereo unspecified) 213 to 215 °C

Respond only with melting point recorded for Nc1nc2c(c(=O)[nH]1)n(CC(=O)c1ccc(Cl)cc1)c(=O)n2C1OC(CO)C(O)C1O (stereo unspecified) > 230 °C

Respond only with melting point recorded for Oc1ccc(-c2nc3cc(O)c(Cl)cc3o2)cc1 260 to 262 °C

Respond only with melting point recorded for Clc1ccc2c(c1)N=C(N1CCN[C@@H](Cc3ccccc3)C1)c1ccccc1N2 79 to 92 °C

Data origin: a melting point compilation (Tetko et al.; mined from patent text by program, amines drawn as free bases though some values may be those of a salt)
